Data provenance is patent US20240425606A1.

measured target: T1, hIL-1 IR (Homo sapiens, UniProt Q14626)
T1 sequence (Q14626 23-422): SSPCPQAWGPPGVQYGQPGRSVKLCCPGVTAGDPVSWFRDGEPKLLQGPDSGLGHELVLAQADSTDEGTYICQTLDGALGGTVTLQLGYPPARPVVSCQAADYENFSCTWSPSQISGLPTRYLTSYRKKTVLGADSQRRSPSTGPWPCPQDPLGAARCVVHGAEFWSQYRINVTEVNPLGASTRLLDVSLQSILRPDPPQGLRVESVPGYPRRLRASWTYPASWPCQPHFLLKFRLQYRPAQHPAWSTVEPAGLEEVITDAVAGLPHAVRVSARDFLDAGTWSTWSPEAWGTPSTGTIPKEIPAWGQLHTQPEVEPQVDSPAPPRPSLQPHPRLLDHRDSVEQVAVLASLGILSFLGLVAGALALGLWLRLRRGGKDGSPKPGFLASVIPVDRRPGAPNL
protocol notes: Alternate biolayer interferometry assay (AHC biosensors) ranking mAbs 16-32 against mAb5
Format: binding
experimental parameters: association 120 s
assay readout: ka (M⁻¹ s⁻¹)
Answers are plain numbers, in M⁻¹ s⁻¹.

Completed entries (count: 3):
1) mAb29: anti-IL-11Rα antibody; VH SEQ ID NO: 249, VL SEQ ID NO: 250; heavy chain Kabat position 31 variant of mAb5 (antibody, V domains shown, mAb29 VH Chain; mAb29 VL Chain, anti-IL-11Rα antibody; heavy chain Kabat position 31 variant of mAb5) VH: EVQLLESGGGLVQPGGSLRLSCAASGFTFSSYSMTWVRQAPGKGLEWVSSIVPYGDLTQYADSVKGRFTISRDNSKNTLYLQMNSLRAEDTAVYYCAKGPGWGSFDLWGRGTLVTVSS VL: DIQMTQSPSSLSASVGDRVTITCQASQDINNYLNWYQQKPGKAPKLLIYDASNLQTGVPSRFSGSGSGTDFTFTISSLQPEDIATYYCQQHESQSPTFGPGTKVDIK | 610000
2) mAb31: anti-IL-11Rα antibody; VH SEQ ID NO: 253, VL SEQ ID NO: 254; heavy chain Kabat position 31 variant of mAb5 (antibody, V domains shown, mAb31 VH Chain; mAb31 VL Chain, anti-IL-11Rα antibody; heavy chain Kabat position 31 variant of mAb5) VH: EVQLLESGGGLVQPGGSLRLSCAASGFTFSVYSMTWVRQAPGKGLEWVSSIVPYGDLTQYADSVKGRFTISRDNSKNTLYLQMNSLRAEDTAVYYCAKGPGWGSFDLWGRGTLVTVSS VL: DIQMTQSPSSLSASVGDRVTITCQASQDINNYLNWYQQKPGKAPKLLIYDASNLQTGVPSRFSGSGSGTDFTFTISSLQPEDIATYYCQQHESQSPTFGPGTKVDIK | 690000
3) mAb23: anti-IL-11Rα antibody; VH SEQ ID NO: 237, VL SEQ ID NO: 238; heavy chain Kabat position 31 variant of mAb5 (antibody, V domains shown, mAb23 VH Chain; mAb23 VL Chain, anti-IL-11Rα antibody; heavy chain Kabat position 31 variant of mAb5) VH: EVQLLESGGGLVQPGGSLRLSCAASGFTFSKYSMTWVRQAPGKGLEWVSSIVPYGDLTQYADSVKGRFTISRDNSKNTLYLQMNSLRAEDTAVYYCAKGPGWGSFDLWGRGTLVTVSS VL: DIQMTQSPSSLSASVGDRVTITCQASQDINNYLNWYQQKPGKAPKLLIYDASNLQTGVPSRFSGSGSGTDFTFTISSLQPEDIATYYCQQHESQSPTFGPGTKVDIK | 720000

Next molecule, please.
Form: molecule = mAb21: anti-IL-11Rα antibody; VH SEQ ID NO: 233, VL SEQ ID NO: 234; heavy chain Kabat position 31 variant of mAb5 (antibody, V domains shown, mAb21 VH Chain; mAb21 VL Chain, anti-IL-11Rα antibody; heavy chain Kabat position 31 variant of mAb5) VH: EVQLLESGGGLVQPGGSLRLSCAASGFTFSHYSMTWVRQAPGKGLEWVSSIVPYGDLTQYADSVKGRFTISRDNSKNTLYLQMNSLRAEDTAVYYCAKGPGWGSFDLWGRGTLVTVSS VL: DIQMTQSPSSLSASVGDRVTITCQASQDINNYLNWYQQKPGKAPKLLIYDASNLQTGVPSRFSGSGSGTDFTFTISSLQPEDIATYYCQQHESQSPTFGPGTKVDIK ; ka = 750000
